Target: T1, Human Nectin-4 (human, UniProt Q96NY8 32-349, limits assumed)
T1 construct: Protein immobilised on the SPR chip; also called target protein
T1 sequence: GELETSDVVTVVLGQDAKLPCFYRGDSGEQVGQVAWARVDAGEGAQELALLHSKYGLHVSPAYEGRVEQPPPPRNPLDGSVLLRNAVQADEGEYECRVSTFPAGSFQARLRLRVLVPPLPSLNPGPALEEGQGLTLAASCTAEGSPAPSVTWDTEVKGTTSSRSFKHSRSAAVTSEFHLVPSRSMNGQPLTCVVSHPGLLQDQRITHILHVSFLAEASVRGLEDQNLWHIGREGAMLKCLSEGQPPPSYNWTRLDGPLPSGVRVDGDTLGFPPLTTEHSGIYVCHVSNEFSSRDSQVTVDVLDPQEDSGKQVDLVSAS
Assay: Table 2B (DELFIA or SPR)
pKd: −log10 of the molar value. Bridges are numbered along the chain shown (N, C = ends). Primed or numbered codes have the meaning given here. Where no end group is shown, it is not given here. The star is where a group is joined. Biotin = O=C1N[C@H]2[C@H](CS[C@H]2CCCCC(=O)*)N1; PEG4″ = 4(ethylene glycol)
property label: pKd

• {Biotin-PEG4″}-CDYDEQFFTALKRLRGGDICEYIQASFQYLPGECIEEILDNLGCS (designed binder, disulfide 1-34, 20-44) [C210] = 8.81
• Ac-CEYDEEFFTGLKRLRGGDICYYIKKKFKKVPDLCIEEILEKLGC-OH (designed binder, disulfide 1-34, 20-44) [C45] = 8.48
• Ac-CEYDEEFFAGLHRLRGGDICYYIKKKFPKVPDLCIEEILDKLGC-OH (designed binder, disulfide 1-34, 20-44) [C21] = 7.31
• Ac-CEYDEEFFTTLKRLRGGDICYYIKKKFKKVPKLCIEEILDKLGC-OH (designed binder, disulfide 1-34, 20-44) [C55] = 8.47
• Ac-CEYDEEFFNGLKRLRGGDICYYIKKKFDKVPDLCIEEILDKLGC-OH (designed binder, disulfide 1-34, 20-44) [C13] = 8.22
• Ac-CEYDEEFFLGLKRLRGGDICYYIKKKFKKVPKLCIEEILEKLGC-OH (designed binder, disulfide 1-34, 20-44) [C61] = 8.75
• {Biotin-PEG4″}-CEYDEEFFTALSRLRGGDICYYIQQAFQYLPGLCIEEILDNLGCS (designed binder, disulfide 1-34, 20-44) [C135] = 8.27
• Ac-CEYDEEFFTDLKRLRGGDICYYIKKKFKKVPKLCIEEILDKLGC-OH (designed binder, disulfide 1-34, 20-44) [C52] = 8.28
• {Biotin-PEG4″}-CEYDEQFFTALKRLRGADICEYIQASFQYLPGLCIEEILDNLGCS-OH (designed binder, disulfide 1-34, 20-44) [C183] = 8.92
• {Biotin-PEG4″}-CEYDEEFFTALARLRGGDICYYILAKFQYLPGECIEEILDNLGCS (designed binder, disulfide 1-34, 20-44) [C145] = 8.89

All values here come from patent US20260151519A1.
